Can you tell me pIC50 for the items I'm about to list?
# target.of.assay: BRM (Homo sapiens, UniProt P51531)
# Construct: made in house; host or cells: High Five insect cells
# Sequence (P51531 whole entry): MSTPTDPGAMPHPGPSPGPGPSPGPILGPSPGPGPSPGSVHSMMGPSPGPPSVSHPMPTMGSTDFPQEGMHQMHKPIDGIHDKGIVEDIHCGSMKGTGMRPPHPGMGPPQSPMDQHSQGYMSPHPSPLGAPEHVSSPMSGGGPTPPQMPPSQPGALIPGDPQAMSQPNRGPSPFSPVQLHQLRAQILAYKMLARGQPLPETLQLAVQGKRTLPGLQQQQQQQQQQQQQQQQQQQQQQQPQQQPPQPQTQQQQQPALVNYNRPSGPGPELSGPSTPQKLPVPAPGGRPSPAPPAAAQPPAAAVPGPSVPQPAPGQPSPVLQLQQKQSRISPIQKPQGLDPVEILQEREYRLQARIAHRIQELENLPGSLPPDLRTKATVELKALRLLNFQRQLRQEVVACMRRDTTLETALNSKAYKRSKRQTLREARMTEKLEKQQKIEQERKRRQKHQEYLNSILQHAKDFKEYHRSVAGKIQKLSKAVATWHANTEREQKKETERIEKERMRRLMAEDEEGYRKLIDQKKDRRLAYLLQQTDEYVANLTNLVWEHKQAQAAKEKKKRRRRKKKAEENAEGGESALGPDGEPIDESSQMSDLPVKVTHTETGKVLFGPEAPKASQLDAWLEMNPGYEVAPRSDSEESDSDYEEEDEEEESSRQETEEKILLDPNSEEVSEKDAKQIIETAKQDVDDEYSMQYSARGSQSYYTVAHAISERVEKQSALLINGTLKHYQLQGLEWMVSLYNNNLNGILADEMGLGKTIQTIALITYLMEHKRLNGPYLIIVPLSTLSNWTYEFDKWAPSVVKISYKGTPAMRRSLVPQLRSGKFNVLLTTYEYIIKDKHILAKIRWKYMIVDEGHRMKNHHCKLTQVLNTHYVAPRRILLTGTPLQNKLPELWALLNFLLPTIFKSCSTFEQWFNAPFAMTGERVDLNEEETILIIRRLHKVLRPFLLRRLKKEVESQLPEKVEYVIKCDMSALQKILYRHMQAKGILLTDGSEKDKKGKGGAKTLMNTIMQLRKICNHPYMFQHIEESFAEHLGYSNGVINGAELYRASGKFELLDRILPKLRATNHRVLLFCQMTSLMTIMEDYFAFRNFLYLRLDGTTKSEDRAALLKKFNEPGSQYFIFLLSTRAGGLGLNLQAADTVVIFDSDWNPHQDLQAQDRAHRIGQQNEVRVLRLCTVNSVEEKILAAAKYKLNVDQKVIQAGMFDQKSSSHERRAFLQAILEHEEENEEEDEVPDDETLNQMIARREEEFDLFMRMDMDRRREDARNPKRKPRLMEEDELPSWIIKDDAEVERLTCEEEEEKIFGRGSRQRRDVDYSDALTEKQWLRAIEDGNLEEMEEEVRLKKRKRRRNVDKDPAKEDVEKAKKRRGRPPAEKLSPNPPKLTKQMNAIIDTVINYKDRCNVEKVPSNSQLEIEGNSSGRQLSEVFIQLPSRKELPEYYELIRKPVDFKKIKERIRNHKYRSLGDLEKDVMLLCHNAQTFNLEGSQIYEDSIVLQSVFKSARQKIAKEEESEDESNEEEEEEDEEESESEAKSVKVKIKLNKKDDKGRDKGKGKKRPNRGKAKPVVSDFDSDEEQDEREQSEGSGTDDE
# experiment: ATPase catalytic activity of BRM, ADP-Glo in vitro biochemical assay
# reported.conditions: ATPase catalytic activity, ADP-Glo; 30 nM BRM, 400 μM ATP
Conceptually, pIC50 converts a concentration in mol/L into minus its log10.

Field pIC50 (entry `CO[C@@H]1CCN(c2cccc(-c3ccc4cnc(CNC(=O)c5ccc6c(c5)S(=O)(=O)CCOC6)cc4n3)n2)C[C@@H]1C` ) reads 7.50

Field pIC50 (entry `CO[C@H]1CN(c2cccc(-c3ccc4cnc(CNC(=O)c5ccc6c(c5)S(=O)(=O)CCOC6)cc4n3)n2)C[C@@H]1F` ) reads 8.02

Field pIC50 (entry `CCc1cnc2c(c1)OCCN2c1ccc2cnc(CNC(=O)c3ccc4c(c3)S(=O)(=O)CCOC4)cc2n1` ) reads 8.19

Field pIC50 (entry `O=C(NCc1cc2nc(-c3cccc(N4CC[C@@H]5C[C@@H]5C4)n3)ccc2cn1)c1ccc2c(c1)S(=O)(=O)CCOC2` ) reads 7.80

Field pIC50 (entry `CCN(c1cccc(-c2ccc3cnc(CNC(=O)c4ccc5c(c4)S(=O)(=O)CCOC5)cc3n2)n1)C1CC1` ) reads 7.66

Field pIC50 (entry `CN1CC[C@H](Oc2cccc(-c3ccc4cnc(CNC(=O)c5ccc6c(c5)S(=O)(=O)CCOC6)cc4n3)n2)C1` ) reads 6.55

Field pIC50 (entry `Cc1cnc2c(c1)OCCN2c1ccc2cnc(CNC(=O)c3ccc4c(c3)S(=O)(=O)CCOC4)cc2n1` ) reads 8.24
